experiment description: qHTS of GLP-1 Receptor Inverse Agonists: Cytotox Screen;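 note: loss of luciferase light is scored as toxicity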
experimental context: HEK293 cAMP-luciferase reporter cells, luminescence, 24 h; series mostly up to 38.3 µM
Among all 410,000 compounds or so, about 530 (0.13%) were called active. About 5% were inconclusive and are not listed. Calls come from the whole dose curve; as a rule, active = well fitted inhibition curve with a large enough effect; inconclusive = small, poorly fitted or top-dose-only effect, or another doubt; inactive = no such curve, though single readings can be large or run the other way. This is one part of a sample in which actives are shown more often than they occur.
Log the outcome using a class from t = active, f = inactive

Request: Check the results log: what was the call for CN(Cc1ccccc1)C(=O)c1cn(C)c2ccc(S(=O)(=O)N(C)C3CCCCC3)cc2c1=O ?
Result: f

Request: Call for entry COc1ccccc1NC(=O)c1cc(C2CC2)nc2c1c(C)nn2-c1ccc(C)cc1 :
Result: f

Request: Hi team, can someone confirm the assay call for Cc1ccc(-n2c(SCC(=O)Nc3cccc(F)c3)nc3c(oc4ccccc43)c2=O)cc1C ?
Result: f

Request: Check the results log: what was the call for Cc1cc2c(cc1S(=O)(=O)CCC(=O)Nc1ccc(OC(F)(F)F)cc1)OCC(=O)N2 ?
Result: f

Request: Please let me know the test result on file for COc1ccc(NC(=O)N2CCCn3nc(C)cc32)cc1OC .
Result: f

Request: Could you please tell me the result logged for CC(C)CN1CCC1(C)C(=O)Nc1ccc(OC(F)F)cc1 (stereo unspecified) in this assay?
Result: f

Request: Could you please tell me the result logged for CC/C(=N\NC(=S)NC(C)C)c1ccc(OC(F)F)cc1 in this assay?
Result: t

Request: Dear all, I need the recorded test outcome for Cc1cccc(C(=O)Nc2ccc(S(=O)(=O)N3CCCCC3c3cccnc3)cc2)c1 (stereo unspecified) , thank you.
Result: f

Request: Call for entry CCCC(=O)Nc1ccc2oc(-c3ccc(O)c(Br)c3)nc2c1 :
Result: f

Request: For this compound, state the assay outcome: Cc1oc(C)c2c(=O)cc(-c3ccc4c(c3)OCO4)cc(OC(=O)c3ccc(Cl)cc3)c12
Result: f

Request: Assay outcome for CC(C)(C)C1CCc2c(sc(NC(=O)c3ccccc3F)c2C(=O)N2CCCCC2)C1 (stereo unspecified) : what was it?
Result: f

Request: Check the results log: what was the call for COc1ccc(-n2c(SC)nc3sc4c(c3c2=O)CCN(C(C)=O)C4)cc1 ?
Result: f

Request: Just curious, what result did CCCN(CCC)CCCNC(=O)Cn1ncc2c3ccccc3n(Cc3ccccc3)c2c1=O get here?
Result: f

Request: Recorded call for CC(C)N(Cc1ccccc1)C(=S)Nc1ccc(OC(F)F)cc1 ?
Result: f

Request: Short answer needed: outcome of this test for Cc1cccc(NC(=O)C2CCN(S(=O)(=O)c3c(C)noc3/C=C/c3ccco3)CC2)c1 ?
Result: f

Request: Dear all, I need the recorded test outcome for COc1cccc(-c2nc(S(=O)(=O)c3ccc(C)cc3)c(NCc3ccccc3)o2)c1 , thank you.
Result: f

Request: // outcome(item) with item = Cn1c(C(=O)Nc2cccc(C(F)(F)F)c2)cc2c(=O)n3ccccc3nc21
Result: f

Request: Which outcome did this test record for the compound COc1ccccc1-c1cc(C(F)(F)F)nc(S(=O)(=O)CCCC(=O)Nc2ccc(F)cc2F)n1 ?
Result: f

Request: # fetch the recorded call for COc1ccc2c(c1)c(N1CCCC1=O)c(C(=O)Nc1ccccc1C(F)(F)F)n2C here
Result: f

Request: What did the test return for O=c1[nH]c2cc(Br)ccc2n2cccc12 ?
Result: f

Request: What outcome does the record of this test show for CCOc1ccccc1NC(=O)C1CCCN(S(=O)(=O)c2cn(C)cn2)C1 (stereo unspecified) ?
Result: f
